Study target: wheat LTP (Triticum aestivum)
Construct: Intact protein (residues 1–90); from tissue; host or cells: wheat bran
Test details: CPA displacement assay (competitive, CPA as tracer)
Format: binding
Study conditions: 50 mM phosphate, pH 7.5; displacement of 2 μM CPA
Sequence (P24296 24-113): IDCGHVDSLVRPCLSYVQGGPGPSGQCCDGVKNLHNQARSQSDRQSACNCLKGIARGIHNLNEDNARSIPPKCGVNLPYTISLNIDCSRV
pIC50: −log10 of the molar value.

{"Compound": "CCCCCCCCCCCCCCCC(=O)OC[C@@H](O)COP(=O)([O-])OCC[N+](C)(C)C [Phosphatidyl choline (vesicular)]", "pIC50": 5.25}
{"Compound": "CCCCCCCCCCCCCCCC(=O)O [Palmitic acid, palmitic acid]", "pIC50": 5.28}
{"Compound": "CCCCC/C=C\\C/C=C\\CCCCCCCC(=O)O [Linoleic acid, linoleic acid]", "pIC50": 5.12}

----------
Study target: peach LTP (Prunus persica, UniProt P81402, A9S/H76S)
Construct: Peach LTP was purified from the skin of peach fruits; from tissue; host or cells: skin of peach fruits
Sequence (P81402 whole entry A9S/H76S): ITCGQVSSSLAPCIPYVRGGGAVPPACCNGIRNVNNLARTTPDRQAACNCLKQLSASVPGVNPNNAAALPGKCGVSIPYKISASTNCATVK
Test details: CPA displacement assay (competitive, CPA as tracer)
Format: binding
pIC50: −log10 of the molar value.
Quick reference for pIC50 among some compounds
Readout name: pIC50

{"Smiles input": "CCCCC/C=C\\C/C=C\\CCCCCCCC(=O)O", "Value reported": 5.80}
{"Smiles input": "CCCCCCCCCCCCCCCC(=O)O", "Value reported": 5.85}

----------
Study target: peach LTP (Prunus persica, UniProt P81402, A9S/H76S)
Construct: Peach LTP was purified from the skin of peach fruits; from tissue; host or cells: skin of peach fruits
Test details: CPA displacement assay (competitive, CPA as tracer)
Type: binding
Study conditions: 50 mM phosphate, pH 7.5; Cheng-Prusoff; read-out: Ki Peach

{"Compound": "CCCCCCCCCCCCCCCC(=O)OC[C@@H](O)COP(=O)([O-])OCC[N+](C)(C)C [Phosphatidyl choline (vesicular)]", "Study target": "peach LTP (Prunus persica, UniProt P81402, A9S/H76S)", "Units label": "nM", "Ki": 700}

----------
Study target: peach LTP (Prunus persica, UniProt P81402, A9S/H76S)
Construct: Peach LTP was purified from the skin of peach fruits; from tissue; host or cells: skin of peach fruits
Test details: CPA displacement assay (competitive, CPA as tracer)
Type: binding
Study conditions: 50 mM phosphate, pH 7.5; displacement of 1 μM CPA; read-out: IC50 Peach

{"Molecule": "CCCCCCCCCCCCCCCC(=O)OC[C@@H](O)COP(=O)([O-])OCC[N+](C)(C)C [Phosphatidyl choline (vesicular)]", "Study target": "peach LTP (Prunus persica, UniProt P81402, A9S/H76S)", "IC50": "1500 nM"}

----------
Study target: wheat LTP (Triticum aestivum)
Construct: Intact protein (residues 1–90); from tissue; host or cells: wheat bran
Test details: CPA fluorescence titration, direct binding
Study conditions: 150 mM NaCl, pH 2.5
Sequence (P24296 24-90 limits assumed): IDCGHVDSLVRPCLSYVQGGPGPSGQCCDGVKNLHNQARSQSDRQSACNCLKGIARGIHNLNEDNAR
Readout name: Kd (nM)

{"Compound": "CC\\C=C/C=C/C=C/C=C\\CCCCCCCC(=O)O [CPA, cis-parinaric acid]", "Study target": "wheat LTP (Triticum aestivum)", "Value reported": 1200}

----------
Study target: peach LTP (Prunus persica)
Construct: Peach LTP was purified from the skin of peach fruits; from tissue; host or cells: skin of peach fruits
Test details: CPA fluorescence titration, direct binding
Study conditions: 150 mM NaCl, pH 2.5
pKd: −log10 of the molar value.
Readout name: pKd

{"Molecule": "CC\\C=C/C=C/C=C/C=C\\CCCCCCCC(=O)O [CPA, cis-parinaric acid]", "Study target": "peach LTP (Prunus persica)", "Value reported": 6.22}

----------
Study target: wheat LTP (Triticum aestivum)
Construct: Intact protein (residues 1–90); from tissue; host or cells: wheat bran
Test details: CPA displacement assay (competitive, CPA as tracer)
Type: binding
Study conditions: 150 mM NaCl, pH 2.5; Cheng-Prusoff
pKi: −log10 of the molar value.

{"Smiles input": "CCCCCCCCCCCCCCCC(=O)OC[C@@H](O)COP(=O)([O-])OCC[N+](C)(C)C", "pKi": 5.44}

----------
Study target: peach LTP (Prunus persica, UniProt P81402, A9S/H76S)
Construct: Peach LTP was purified from the skin of peach fruits; from tissue; host or cells: skin of peach fruits
Test details: CPA displacement assay (competitive, CPA as tracer)
Assay type: binding
Study conditions: 150 mM NaCl, pH 2.5; Cheng-Prusoff; read-out: Ki Peach

{"Smiles input": "CCCCCCCCCCCCCCCC(=O)OC[C@@H](O)COP(=O)([O-])OCC[N+](C)(C)C", "Study target": "peach LTP (Prunus persica, UniProt P81402, A9S/H76S)", "Units label": "nM", "Ki": 800}

----------
Study target: peach LTP (Prunus persica, UniProt P81402, A9S/H76S)
Construct: Peach LTP was purified from the skin of peach fruits; from tissue; host or cells: skin of peach fruits
Test details: CPA displacement assay (competitive, CPA as tracer)
Format: binding
Quick reference for Ki among some molecules

{"Smiles input": "CCCCC/C=C\\C/C=C\\CCCCCCCC(=O)O", "Ki": "800 nM"}
{"Smiles input": "CCCCCCCCCCCCCCCC(=O)O", "Ki": "700 nM"}

----------
Quick reference for Ki among some molecules
Study target: wheat LTP (Triticum aestivum, UniProt P24296)
Construct: Intact protein (residues 1–90); from tissue; host or cells: wheat bran
Test details: CPA displacement assay (competitive, CPA as tracer)
Assay type: binding
Study conditions: 50 mM phosphate, pH 7.5; Cheng-Prusoff

{"Smiles input": "CCCCC/C=C\\C/C=C\\CCCCCCCC(=O)O", "Study target": "wheat LTP (Triticum aestivum, UniProt P24296)", "Units label": "µM", "Ki": 5.3}
{"Smiles input": "CCCCCCCCCCCCCCCC(=O)OC[C@@H](O)COP(=O)([O-])OCC[N+](C)(C)C", "Study target": "wheat LTP (Triticum aestivum, UniProt P24296)", "Units label": "µM", "Ki": 3.9}
{"Smiles input": "CCCCCCCCCCCCCCCC(=O)O", "Study target": "wheat LTP (Triticum aestivum, UniProt P24296)", "Units label": "µM", "Ki": 3.6}

----------
Study target: wheat LTP (Triticum aestivum)
Construct: Intact protein (residues 1–90); from tissue; host or cells: wheat bran
Test details: CPA fluorescence titration, direct binding
Study conditions: 50 mM phosphate, pH 7.5

{"Compound": "CC\\C=C/C=C/C=C/C=C\\CCCCCCCC(=O)O [CPA, cis-parinaric acid]", "Kd / µM": 4.5}
